Numbers sourced from PubChem BioAssay (NCI).

Tested on: SK-OV-3 ovarian
Assay: NCI tumour cell line growth inhibition, 48 h
Listing: TGI of selected compounds

# Compound, TGI
records = [
    ("COc1cc(-c2cncn2-c2ccc(-c3nc4ccc(F)cc4s3)cc2)ccc1F", "> 100 µM"),
    ("COC(=O)C(Cc1nc2ccc(Cl)cc2[nH]c1=O)/C(=N/O)C(=O)Nc1cccc(Cl)c1C (centres undefined)", "> 100 µM"),
    ("Cc1nc2nnnn2c2c1C(=O)Nc1ccccc1N2", "> 100 µM"),
    ("CCOC(=O)NC(=O)c1cn(-c2ccc(CCOC(=O)NCCCCCCNC(=O)OCCc3ccc(-n4c(=O)[nH]cc(C(=O)NC(=O)OCC)c4=O)cc3)cc2)c(=O)[nH]c1=O", "> 89.8 µM"),
    ("Nc1[nH]c(=O)nc2c1cnn2Cc1ccccc1", "> 100 µM"),
    ("C[C@H](CCC(=O)O)[C@H]1CC[C@H]2[C@@H]3[C@@H](O)C[C@@H]4C[C@H](O)CC[C@]4(C)[C@H]3CC[C@]12C", "> 100 µM"),
    ("CCOC(=O)Cn1c(=O)n(C)c(=O)c2[nH]cnc21", "> 100 µM"),
    ("COc1ccc(C2CC(c3ccc4ccccc4c3O)=NN2)cc1OC (centres undefined)", "> 100 µM"),
    ("CC1=C(C(=O)Nc2ccc(Cl)c(Cl)c2)C(c2ccccc2Cl)NC(=S)N1 (centres undefined)", "> 50 µM"),
]

###

Test system: SK-MEL-2 melanoma
Assay: NCI tumour cell line growth inhibition, 48 h

# Structure As Smiles, TGI
records = [
    ("O=C1C(c2ccccc2)=C(c2ccccc2)C(c2ccc(-c3ccc(C4=C(c5ccccc5)C(=O)C(c5ccccc5)=C4c4ccccc4)cc3)cc2)=C1c1ccccc1", "> 100 µM"),
    ("Cc1ccc2c(=O)cc(-c3cccc(Cl)c3)[nH]c2n1", "> 100 µM"),
    ("N#Cc1nc(-c2cccnc2)oc1N", "> 100 µM"),
]

###

Tested on: K-562 leukemia
Test: NCI tumour cell line growth inhibition, 48 h
Where a SMILES comes first, the peptide text is derived from it. The star is where a group is joined. CH2Cl = ClC*

# Molecule, TGI
rows = [
    ("CC1OC(=O)C2CC3CCCCC3C(/C=C/C3CCCC(C)N3C)C12 (stereo not given)", "> 100 µM"),
    ("O[C@H]1C=C2[C@H](C[C@@H]1O)CN1C[C@H]2c2cc3c(cc21)OCO3", "> 100 µM"),
    ("CSc1nc(-c2ccccc2)c(C#N)c(=O)[nH]1", "> 100 µM"),
    ("O=C(Cc1ccc(OCc2cccc(Cl)c2)cc1)NO", "> 100 µM"),
    ("Cc1ccc(NC(=S)C#N)cc1Cl", "> 100 µM"),
    ("Cc1c(C(=O)C(=O)c2ccccc2)c(C)c(C(=O)C(=O)c2ccccc2)c(C)c1C(=O)C(=O)c1ccccc1", "> 100 µM"),
    ("C=C(C)[C@@H]1CC[C@]2(COC(C)=O)CC[C@]3(C)[C@H](CC[C@@H]4[C@@]5(C)CCCN(C(C)=O)C(C)(C)[C@@H]5CC[C@]43C)[C@@H]12", "4.14 µM"),
    ("COc1cc(OC)c(C#N)c(OC)c1C", "> 100 µM"),
    ("CC(C)OP(=O)(CCCCCCCCC/C=C/c1ccc2c(c1)OCCOCCOCCOCCO2)OC(C)C", "24.1 µM"),
    ("C=CCOC1=CC(=O)c2ccccc2C1=O", "16.5 µM"),
    ("Fc1cc(-c2cc(-c3ccccc3)n[nH]2)c(Cl)cc1Cl", "23.2 µM"),
    ("C[C@]12CC[C@@H]3c4ccc(O)cc4CC[C@H]3[C@@H]1CC[C@@H]2OC(=O)CCC1CCCC1", "35.2 µM"),
    ("CN1C(c2ccccc2)CC(=NOCc2ccccc2)CC1c1ccccc1 (stereo not given)", "44.3 µM"),
    ("CN(CCN(C)CCN(C)C(=O)Cc1ccc(Cl)c(Cl)c1)CCN1CCCC1", "12.9 µM"),
    ("Nc1ccccc1C(=O)CCc1c[nH]c2ccccc12", "> 100 µM"),
    ("N#CCCN(CCNc1ccccc1)C(=O)Nc1ccc(NC(=O)N(CCC#N)CCNc2ccccc2)cc1", "> 100 µM"),
    ("O=NN(CCCl)C(=O)NC1CCC(C(=O)O)CC1 (stereo not given)", "> 100 µM"),
    ("CC(=O)NC(CC(C)C)C(=O)NC(Cc1ccccc1)C(=O)CCl (stereo not drawn) (Ac-Leu-Phe-CH2Cl; configuration not given here)", "10.7 µM"),
    ("Cc1nc2c(=O)n(C)c(=O)n(C)c2o1", "> 100 µM"),
    ("Cn1cnc([N+](=O)[O-])c1Sc1nc2ncccc2[nH]1", "> 100 µM"),
    ("COc1ccc(C2CC(c3ccc4ccccc4c3O)=NN2)cc1OC (stereo not given)", "52.1 µM"),
    ("CCN(CC)CCCN1C(=O)c2c(c(C)c3c(oc4ccc(O)cc43)c2C)C1=O", "3.77 µM"),
    ("COC(=O)c1cc2cc(-c3ccc(OC)cc3)cnc2[nH]1", "> 100 µM"),
    ("CCCCC/C=C1\\CC(CO)(COC(=O)CC(C(C)C)C(C)C)OC1=O (stereo not given)", "44.2 µM"),
    ("C=C1C(=O)O[C@H]2[C@H]1CC/C(COC(=O)NCc1ccc(Cn3c(=O)sn(CCI)c3=O)cc1)=C\\CC[C@@]1(C)O[C@@H]21", "> 100 µM"),
    ("c1cc(N2CCN(c3ccc(C4=NCCN4)cc3)CC2)ccc1C1=NCCN1", "> 100 µM"),
    ("CCOC(=O)Cn1c(=O)n(C)c(=O)c2[nH]cnc21", "> 100 µM"),
    ("O=C1C(c2ccccc2)=C(c2ccccc2)C(c2ccc(-c3ccc(C4=C(c5ccccc5)C(=O)C(c5ccccc5)=C4c4ccccc4)cc3)cc2)=C1c1ccccc1", "> 100 µM"),
    ("CSc1nn2c(-c3ccc4ccccc4c3)ccnc2c1C#N", "> 100 µM"),
    ("C=CC(O)C#Cc1cnc(OC)nc1OC (stereo not given)", "66.6 µM"),
    ("CCN(CC)c1ccc2cc(C(=O)Nc3ccccc3OC)c(=N)oc2c1", "> 100 µM"),
    ("CO[C@]12CC(=O)C3(C(C[C@H]4CC5CCC6=CC(=O)CC[C@]6(OC(C)=O)C5C[C@@]43C)C1)C1C[C@H]3[C@@H]4CCC5=CC(=O)CC[C@]5(OC(C)=O)[C@H]4CC[C@]3(C)C12 (stereo not given in full)", "> 100 µM"),
    ("CNCCCNc1c2cc(OC)ccc2nc2cccc([N+](=O)[O-])c12", "0.0449 µM"),
    ("Nc1[nH]c(=O)nc2c1cnn2Cc1ccccc1", "> 100 µM"),
    ("CCCCC/C=C/C(=O)CCc1ccc(O)c(OC)c1", "> 100 µM"),
    ("COc1ccc(NC(=O)C(=O)NO)c(OC)c1", "56.4 µM"),
    ("Cc1cc([N+](=O)[O-])c(C)c2c1[nH]c1ccc(O)cc12", "> 100 µM"),
    ("CN(CCO)C1CCN(c2ccc(Nc3ncc4c5ccnc(F)c5n(C5CCCC5)c4n3)nc2)CC1", "4.08 µM"),
    ("C=C(C)[C@@H]1C/C=C(\\COC(=O)[C@H](OC(C)=O)C(NC(=O)c2ccccc2)c2ccccc2)CC[C@H]2O[C@]2(C)CC/C=C(\\C)CC1 (stereo not given in full)", "> 50 µM"),
    ("Cc1nn(C(=O)Cc2ccccc2)c2c1C(c1ccc3ccccc3c1O)SC(N)=N2 (stereo not given)", "> 100 µM"),
]
